# Assay Comment: Aqueous solubility of the compound at pH 6.5 incubated for 24 hrs under shaking condition by HPLC-MS/MS analysis
# Type: physicochemical
# Details: buffer
Reported solubility at 24 h is given for each of the following compounds.
Give just the numeric value; µg/mL need not be written.

- Substance Smiles: "O=C(Nc1cnc(Oc2ccc(F)cc2)nc1)N1CCc2ncccc2[C@@H]1c1ccc(F)cc1"
  solubility at 24 h [µg/mL]: 39

Ask: Look at this compound and give its reported solubility at 24 h. O=C(Nc1ccc(Oc2ccc(F)cc2)cc1)N1CCc2ncccc2[C@@H]1c1ccc(Cl)cc1
Result: 3.5

---

# System: Cytochrome P450 2C9 (Homo sapiens, UniProt P11712)
# Sequence (P11712 whole entry): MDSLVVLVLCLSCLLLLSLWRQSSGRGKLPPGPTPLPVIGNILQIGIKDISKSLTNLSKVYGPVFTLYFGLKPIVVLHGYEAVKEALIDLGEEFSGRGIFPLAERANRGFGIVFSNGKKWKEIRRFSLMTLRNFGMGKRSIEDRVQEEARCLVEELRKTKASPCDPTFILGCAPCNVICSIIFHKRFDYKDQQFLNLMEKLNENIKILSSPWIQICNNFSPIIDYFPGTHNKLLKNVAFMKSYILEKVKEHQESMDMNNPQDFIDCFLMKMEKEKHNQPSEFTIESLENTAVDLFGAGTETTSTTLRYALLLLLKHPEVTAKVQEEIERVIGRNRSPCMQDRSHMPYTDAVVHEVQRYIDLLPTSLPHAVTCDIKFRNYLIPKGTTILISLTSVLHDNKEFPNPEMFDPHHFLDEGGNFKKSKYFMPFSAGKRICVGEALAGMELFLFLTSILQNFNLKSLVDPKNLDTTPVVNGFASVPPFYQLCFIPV
Reported Metric: pIC50
When answering, recall that pIC50 equals minus log10 of the concentration in mol/L, and write that number alone.

- Substance Smiles: "O=C(Nc1ccc(Oc2ccc(F)cc2)cc1)N1CCc2ncccc2[C@@H]1c1ccc(Cl)cc1"
  pIC50: 5.36

We now examine a further compound.
Ask: Give the reported pIC50 for O=C(Nc1cnc(Oc2ccc(F)cc2)nc1)N1CCc2ncccc2[C@@H]1c1ccc(F)cc1 (system: Cytochrome P450 2C9 (Homo sapiens, UniProt P11712)).
Result: 5.00

---

# Assay Comment: Clearance in human liver microsomes at 1 uM measured after 2 to 60 mins in presence of glucose-6-phosphate by LC-MS/MS analysis
# Format: ADME, Microsome
Reported Metric: CLhep predicted at 1 µM (mL/min/kg)
Reply numerically in mL/min/kg, unit not repeated.

The following molecules have reported results that may help.
- Molecule: "Cc1ccc(C2c3ccsc3CCN2C(=O)Nc2cc(Cl)cc(Cl)c2)cc1 (racemic)"
  Numeric Readout: 20
- Molecule: "O=C(Nc1cc(Cl)cc(Cl)c1)N1CCc2sccc2C1c1cccnc1 (racemic)"
  Numeric Readout: 20
- Molecule: "O=C(Nc1ccccc1)N1CCc2sccc2C1c1ccc(Cl)cc1 (racemic)"
  Numeric Readout: 16.7

Ask: Record request: CLhep predicted at 1 µM value, item O=C(Nc1ccc(Oc2ccc(F)cc2)cc1)N1CCc2sccc2C1c1ccc(Cl)cc1 (racemic)
Result: 10

Ask: Quick check: CLhep predicted at 1 µM of O=C(Nc1ccc(Oc2ccc(F)cc2)nc1)N1CCc2ncccc2[C@@H]1c1ccc(F)cc1 ?
Result: 3.33

---

# Assay Comment: Lipophilicity, logD of the compound at pH 7.5 by reversed-phase HPLC
# Type: physicochemical
# Details: buffer
Reported chromatographic logD values are given for each entry in this list.
Kindly provide the number alone.

Illustrative cases are given below, each with its answer.
- Compound: "O=C(Nc1cc(Cl)cc(Cl)c1)N1CCc2sccc2C1c1cccnc1 (racemic)"
  chromatographic logD: 4.2
- Compound: "COc1ccc(C2c3ccsc3CCN2C(=O)Nc2ccc(F)c(C(N)=O)c2)cc1 (racemic)"
  chromatographic logD: 2.8
- Compound: "COc1ccc(C2c3ccsc3CCN2C(=O)Nc2cc(OC)cc(OC)c2)cc1 (racemic)"
  chromatographic logD: 3.6
- Compound: "O=C(Nc1cc(Cl)cc(Cl)c1)N1CCc2sccc2C1c1ccc(=O)[nH]c1 (racemic)"
  chromatographic logD: 3.7
- Compound: "O=C(Nc1ccc(F)c(Cl)c1)N1CCc2sccc2C1c1ccc(Cl)cc1 (racemic)"
  chromatographic logD: 5.1

Ask: I'd like to know its chromatographic logD. The compound in question is O=C(Nc1cc(Cl)cc(Cl)c1)N1CCc2sccc2C1c1cccc(F)c1 (racemic)
Result: 5.1
